Data provenance: PubChem BioAssay (EPA / NIEHS)

- Read-out: Vascular cell adhesion molecule 1 (VCAM1), VCAM1 (gene 7412)
- Test method notes: BSK_LPS_VCAM1: BioMAP Diversity Plus: LPS Assay for Vascular cell adhesion molecule 1 (VCAM1) Biomarker Activity (AID 2283086)
- Experimental context: primary human HUVEC with PBMC; actives raise or lower the signal
Activity calls are given as the source filed them. Rule for the calls: active = hit-call score of the fitted dose curve at least 0.9, where 1 is the maximum; inactive = score below 0.9.
Recorded metric: AC50

Some molecules with known AC50 results, for comparison:
Q) Find the recorded AC50 belonging to C=CCN(CC=C)C(=O)C(Cl)Cl and report it.
A) inactive

Q) Find the recorded AC50 belonging to O=S(=O)(c1ccccc1)c1ccccc1 and report it.
A) inactive

Q) Find the recorded AC50 belonging to CNC(=O)Oc1cc(C)c(SC)c(C)c1 and report it.
A) 20 µM (active)

Q) Find the recorded AC50 belonging to O=C1C(Cl)=C(Cl)C(=O)C(Cl)=C1Cl and report it.
A) 16.2 µM (active)

Now consider a different molecule.
Q) Find the recorded AC50 belonging to C=CC(=O)OCC(CC)CCCC (stereo not given) and report it.
A) 7.48 µM (active)

---

- Target under test: Estrogen receptor beta (Homo sapiens) (UniProt Q92731)
- Sequence (Q92731 whole entry, looked up): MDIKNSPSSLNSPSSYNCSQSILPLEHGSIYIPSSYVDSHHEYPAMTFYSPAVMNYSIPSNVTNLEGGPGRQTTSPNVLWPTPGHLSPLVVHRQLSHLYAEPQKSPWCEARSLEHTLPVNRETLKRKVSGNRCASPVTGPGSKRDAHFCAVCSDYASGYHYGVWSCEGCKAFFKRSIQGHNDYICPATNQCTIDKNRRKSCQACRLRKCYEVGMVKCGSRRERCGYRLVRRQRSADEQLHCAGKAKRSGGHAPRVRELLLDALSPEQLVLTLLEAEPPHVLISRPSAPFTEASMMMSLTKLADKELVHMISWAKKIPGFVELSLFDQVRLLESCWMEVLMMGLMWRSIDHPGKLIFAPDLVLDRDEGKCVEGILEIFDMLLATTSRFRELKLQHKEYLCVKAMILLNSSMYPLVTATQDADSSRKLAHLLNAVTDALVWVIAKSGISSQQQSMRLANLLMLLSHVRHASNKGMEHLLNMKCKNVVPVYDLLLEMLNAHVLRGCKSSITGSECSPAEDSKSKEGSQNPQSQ
- Test method notes: OT_ER_ERbERb_0480: Odyssey Thera (OT) 8-hour HEK293T Protein-Complementation Assay for Estrogen Receptor-beta/-beta Homodimer (AID 2283357);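 note: active means signal gain over DMSO baseline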
Records with an inconclusive call do not appear. Activity calls are given as the source filed them. The calls were made as follows: active = hit-call score of the fitted dose curve at least 0.9, where 1 is the maximum; inconclusive = response in the unintended direction; inactive = score below 0.9.
Recorded metric: AC50

Some compounds with known AC50 results, for comparison:
Q) Find the recorded AC50 belonging to C=CCN(CC=C)C(=O)C(Cl)Cl and report it.
A) inactive

Q) Find the recorded AC50 belonging to Nc1cc(Cl)cc(Cl)c1 and report it.
A) inactive

Q) Find the recorded AC50 belonging to O=C(NC(=O)c1c(F)cccc1F)Nc1ccc(Oc2ccc(C(F)(F)F)cc2Cl)cc1F and report it.
A) inactive

Q) Find the recorded AC50 belonging to C=CC(=O)OCC(CC)CCCC (centres undefined) and report it.
A) inactive

Q) Find the recorded AC50 belonging to CNC(=N[N+](=O)[O-])NCC1CCOC1 (centres undefined) and report it.
A) inactive

Q) Find the recorded AC50 belonging to c1ccc(P(c2ccccc2)c2ccccc2)cc1 and report it.
A) 25.4 µM (active)

Q) Find the recorded AC50 belonging to CC(Cc1ccc(C(C)(C)C)cc1)CN1C[C@@H](C)O[C@@H](C)C1 (some centres undefined) and report it.
A) inactive

Q) Find the recorded AC50 belonging to Nc1ccc(Cl)c(Cl)c1 and report it.
A) inactive

Q) Find the recorded AC50 belonging to CC(C)c1ccc(O)cc1 and report it.
A) 57.9 µM (active)

Q) Find the recorded AC50 belonging to CCOP(=O)(OCC)OCC and report it.
A) inactive

More entries:
Q) Find the recorded AC50 belonging to CC(=O)c1cc2c(cc1C)C(C)(C)C(C)CC2(C)C (centres undefined) and report it.
A) 5.28 µM (active)

Q) Find the recorded AC50 belonging to CN(C)C(=O)C(c1ccccc1)c1ccccc1 and report it.
A) inactive

Q) Find the recorded AC50 belonging to CCC(=O)c1ccc(Cl)cc1 and report it.
A) inactive

Q) Find the recorded AC50 belonging to CC(C)[C@@H](C(=O)O[C@@H](C#N)c1cccc(Oc2ccccc2)c1)c1ccc(Cl)cc1 and report it.
A) inactive
